# credit: ChEMBL document CHEMBL3856275

Target: UniProt:Q12809
Sequence (Q12809 whole entry): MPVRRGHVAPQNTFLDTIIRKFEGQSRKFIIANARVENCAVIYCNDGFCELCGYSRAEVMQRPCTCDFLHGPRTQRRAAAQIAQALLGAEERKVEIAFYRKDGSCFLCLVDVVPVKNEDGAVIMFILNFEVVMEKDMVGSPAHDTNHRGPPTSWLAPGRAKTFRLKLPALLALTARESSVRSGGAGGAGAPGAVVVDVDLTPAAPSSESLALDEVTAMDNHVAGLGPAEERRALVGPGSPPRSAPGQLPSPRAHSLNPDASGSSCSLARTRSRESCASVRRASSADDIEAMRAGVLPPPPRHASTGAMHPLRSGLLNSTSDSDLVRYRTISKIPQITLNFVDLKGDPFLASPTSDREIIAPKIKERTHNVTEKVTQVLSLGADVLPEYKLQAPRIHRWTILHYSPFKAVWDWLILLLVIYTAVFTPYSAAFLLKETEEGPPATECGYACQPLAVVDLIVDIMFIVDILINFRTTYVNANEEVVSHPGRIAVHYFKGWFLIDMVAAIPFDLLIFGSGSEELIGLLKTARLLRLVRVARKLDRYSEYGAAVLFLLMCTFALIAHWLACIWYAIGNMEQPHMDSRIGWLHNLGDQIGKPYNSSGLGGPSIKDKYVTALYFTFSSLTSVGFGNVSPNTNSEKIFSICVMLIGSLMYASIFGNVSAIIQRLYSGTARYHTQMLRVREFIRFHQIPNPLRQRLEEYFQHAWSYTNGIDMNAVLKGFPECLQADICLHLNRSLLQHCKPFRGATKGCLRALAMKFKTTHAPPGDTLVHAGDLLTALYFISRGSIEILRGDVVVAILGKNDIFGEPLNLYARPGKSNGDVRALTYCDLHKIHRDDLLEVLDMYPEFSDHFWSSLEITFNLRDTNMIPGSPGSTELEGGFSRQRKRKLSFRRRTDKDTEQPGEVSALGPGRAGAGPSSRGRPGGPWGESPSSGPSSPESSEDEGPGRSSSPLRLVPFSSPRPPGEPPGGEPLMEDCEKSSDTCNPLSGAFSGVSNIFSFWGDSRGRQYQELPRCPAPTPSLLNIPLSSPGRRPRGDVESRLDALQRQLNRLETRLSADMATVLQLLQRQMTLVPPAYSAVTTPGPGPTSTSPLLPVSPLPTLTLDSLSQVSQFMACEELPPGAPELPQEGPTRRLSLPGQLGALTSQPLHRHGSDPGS
Below: a set of entries, each annotated with reported pIC50.
Scale: pIC50 equals -log10([C]), with [C] in mol/L.

// below: answered molecules
N#Cc1ccc(-c2ccc(C[C@@H](C#N)NC(=O)[C@@H]3CNCCCO3)cc2)cc1: 4.77
Cn1c(=O)sc2ccc(-c3ccc(C[C@@H](C#N)NC(=O)[C@@H]4CNCCCO4)cc3)cc21: 4.64

In the following, a different molecule is considered.
Any idea what pIC50 came out for `N#Cc1ccc(-c2ccc(C[C@@H](C#N)NC(=O)[C@@H]3CCCCC[C@@H]3N)cc2)cc1` on UniProt:Q12809?
5.44

###

// reported fraction unbound at 6 h, 10 µM per item
Assay: Protein binding in human plasma at 10 uM after 6 hrs by LC-MS/MS method
Assay type: ADME, cell-free
Conditions: read-out: PPB (converted)
Write the value as a bare number.

Examples with their reported fraction unbound at 6 h, 10 µM follow.
N#Cc1ccc(-c2ccc(C[C@@H](C#N)NC(=O)[C@@H]3CCCC[C@@H]3N)cc2)cc1: 0.07
N#Cc1ccc(-c2ccc(C[C@@H](C#N)NC(=O)[C@@H]3CNCCCO3)cc2)cc1: 0.09

Okay, now this molecule:
Look at this molecule and give its reported fraction unbound at 6 h, 10 µM. `Cc1cc(-c2ccc(C[C@@H](C#N)NC(=O)[C@@H]3CNCCCO3)cc2)cc2c1oc(=O)n2C`
0.08

###

Assay: Apparent permeability across basolateral to apical side in human Caco2 cells at 10 uM after 1 hr by LC-MS method
Conditions: Caco-2
Papp B→A at 1 h, 10 µM reference
Respond with the bare value in ×10⁻⁶ cm/s.

N#C[C@H](Cc1ccc(-c2ccc3oc(=O)n(CC(F)F)c3c2)cc1)NC(=O)[C@@H]1CNCCCO1: 80
N#Cc1ccc(-c2ccc(C[C@@H](C#N)NC(=O)[C@@H]3CCCC[C@@H]3N)cc2)cc1: 36
N#Cc1ccc(-c2ccc(C[C@@H](C#N)NC(=O)[C@@H]3CNCCCO3)cc2)cc1: 45

Would you mind telling me what Papp B→A at 1 h, 10 µM value was observed for Cn1c(=O)oc2ccc(-c3ccc(C[C@@H](C#N)NC(=O)[C@@H]4CNCCCO4)cc3)cc21 [BRENSOCATIB] ?
58

###

Experiment: physchem
Conditions: octanol/water, pH 7.4
Items are presented alongside their recorded logD at 10 µM.
Output: the number by itself.

I am curious: what logD at 10 µM value has been reported for `N#Cc1ccc(-c2ccc(C[C@@H](C#N)NC(=O)[C@@H]3CCCC[C@@H]3N)cc2)cc1` ?
1.6

###

Consider the following compounds and their measured logD at 10 µM readings.
Experiment: physchem
Settings: octanol/water, pH 7.4
Write the value as a bare number.

Solved entries (count: 4):
N#C[C@H](Cc1ccc(-c2ccc3scnc3c2)cc1)NC(=O)[C@@H]1CNCCCO1: 1.5
N#Cc1ccc(-c2ccc(C[C@@H](C#N)NC(=O)[C@@H]3CCCCC[C@@H]3N)cc2)cc1: 2
Cn1c(=O)ccc2ccc(-c3ccc(C[C@@H](C#N)NC(=O)[C@@H]4CNCCCO4)cc3)cc21: 1.1
CN1C(=O)COc2ccc(-c3ccc(C[C@@H](C#N)NC(=O)[C@@H]4CNCCCO4)cc3)cc21: 1.1

Form field: reported logD at 10 µM of `N#Cc1ccc(-c2ccc(C[C@@H](C#N)NC(=O)[C@H]3CNCCO3)cc2)cc1`
1.6

May I ask what logD at 10 µM has been recorded for `N#Cc1ccc(-c2ccc(C[C@@H](C#N)NC(=O)[C@@H]3CNCCCO3)cc2)cc1` ?
1.1

What logD at 10 µM value was documented for this compound, `N#Cc1ccc(-c2ccc(C[C@@H](C#N)NC(=O)[C@@H]3CCCNC3)cc2)cc1` ?
0.6

###

Assay: physchem
Conditions: octanol/water, pH 7.4
metric: logD at 10 µM

// solved cases for logD at 10 µM follow
Cc1noc2ccc(-c3ccc(C[C@@H](C#N)NC(=O)[C@@H]4CNCCCO4)cc3)cc12: 1.5
N#Cc1ccc(-c2ccc(C[C@@H](C#N)NC(=O)C3CNCCCO3)cc2)cc1 (mixture of isomers): 1.1

Now consider a different compound.
// query logD at 10 µM value for entry `N#Cc1ccc(-c2ccc(C[C@@H](C#N)NC(=O)[C@H]3CNCCCO3)cc2)cc1`
1.2
